Recorded viability at 10 µM by entry
System: J82
protocol.details: MTT test, cytotoxic activity on non-clonogenic cell lines
Type: cell-based
settings: Homo sapiens, 10^−5 M, 72 hours incubation, MTT, mean value, read-out: mean optical density, expressed as percentage relative to the mean optical density under the control condition (100%)
Your reply should be a number followed by the unit it is expressed in.

These solved cases illustrate the format of a correct answer.
1) CCN(CC)c1cc(OC)cc2c1c(=O)c(-c1ccc(OC)cc1)cn2C [CRL8437]    98.7%
2) CCN(CC)C(=O)Cn1cc(-c2ccc(OC)cc2)c(=O)c2ccc(OC)cc21 [CRL8466]    93.1%

Give the reported value of viability at 10 µM for this record: COc1ccc(-c2cn(CCN(C)C)c3cc(OC)ccc3c2=O)cc1 [CRL8469]
89.5%

Return viability at 10 µM (reported value) for this molecule: COc1ccc(-c2cn(C)c3cc(OC)cc(NCCN(C)C)c3c2=O)cc1 [CRL8462]
105%

For the molecule CCOC(=O)Cn1cc(-c2ccc(OC)cc2)c(=O)c2ccc(OC)cc21 [CRL8465] , give its reported viability at 10 µM.
93.6%

// Input: COc1ccc(-c2cn(CCCC#N)c3cc(OC)ccc3c2=O)cc1 [CRL8470] . Output its viability at 10 µM only.
85.6%

// fetch viability at 10 µM given entry COc1ccc(-c2cn(C)c3cc(OC)cc(N)c3c2=O)cc1 [CRL8461]
94.9%

Quickly give me recorded viability at 10 µM for COc1ccc(-c2cn(CCC#N)c3cc(OC)ccc3c2=O)cc1 [CRL8467]
96.3%

Output measured viability at 10 µM for this item: CCOC(=O)CCn1cc(-c2ccc(OC)cc2)c(=O)c2ccc(OC)cc21 [CRL8468]
91.9%

Please give the documented viability at 10 µM of COc1ccc(-c2cn(C)c3cc(OC)cc(N4CCN(C)CC4)c3c2=O)cc1 [CRL8436]
101%

Given the molecule CC(=O)Oc1ccc(-c2cn(C)c3c(OC(C)=O)ccc(OC(C)=O)c3c2=O)cc1 [CRL8460] , write its reported viability at 10 µM.
45.7%

Write down viability at 10 µM measured for item COc1ccc(-c2cn(C)c3cc(OC)ccc3c2=O)cc1 [CRL8464]
95.4%

###

System: A-427
protocol.details: MTT test, cytotoxic activity on non-clonogenic cell lines
Type: cell-based
settings: Homo sapiens, 10^−5 M, 72 hours of incubation, control condition = 100%, mean value, read-out: mean optical density as percentage of control, A-427
readout.type: viability at 10 µM

Give the reported value of viability at 10 µM for this record: COc1ccc(-c2cn(CCC#N)c3cc(OC)cc(OC)c3c2=O)cc1 [CRL8412]
83.7%

For COc1ccc(-c2cn(CCCC#N)c3c(OC)ccc(OC)c3c2=O)cc1 [CRL8421] , write its viability at 10 µM.
33%

Please look at this molecule and report its viability at 10 µM: COc1ccc(-c2cn(C)c3ccc(OC)cc3c2=O)cc1 [CRL8378]
72.3%

Identify measured viability at 10 µM associated with COc1ccc(-c2cn(CCCN(C)C)c3cc(OC)cc(OC)c3c2=O)cc1 [CRL8357]
59.5%

Return viability at 10 µM for the following molecule: CCOC(=O)CCn1cc(-c2ccc(OC)cc2)c(=O)c2c(OC)cc(OC)cc21 [CRL8404]
93.3%

###

System: T-47D
protocol.details: MTT test, cytotoxic activity on non-clonogenic cell lines
Format: cell-based
settings: Homo sapiens, T47D; T-47D; 10^−5 M; 72 hours incubation; MTT; mean value; read-out: mean optical density, expressed as percentage relative to the mean optical density under the control condition (100%)
Below, each of the molecules is paired with its reported viability at 10 µM value.
State just the number; it will be interpreted in %.

Use the examples below as a reference point.
1. COc1ccc(-c2cn(CCC#N)c3cc(OC)ccc3c2=O)cc1 [CRL8467]    100
2. CCN(CC)C(=O)Cn1cc(-c2ccc(OC)cc2)c(=O)c2ccc(OC)cc21 [CRL8466]    95.2
3. COc1ccc(-c2cn(C)c3cc(OC)ccc3c2=O)cc1 [CRL8464]    110
4. COc1ccc(-c2cn(CCN(C)C)c3cc(OC)ccc3c2=O)cc1 [CRL8469]    103

Okay, now this molecule:
Respond only with viability at 10 µM recorded for CCOC(=O)CCn1cc(-c2ccc(OC)cc2)c(=O)c2ccc(OC)cc21 [CRL8468]
92.2

###

The entries below are paired with their reported viability at 10 µM.
Test system: MCF7
protocol.details: MTT test, cytotoxic activity on non-clonogenic cell lines
Type: cell-based
settings: Homo sapiens, 10^−5 M, 72 hours incubation, MTT, mean value, read-out: mean optical density, expressed as percentage relative to the mean optical density under the control condition (100%)
// units = %; emit number, no label

1. CC(=O)Oc1ccc(-c2cn(C)c3c(OC(C)=O)ccc(OC(C)=O)c3c2=O)cc1    35
2. CCN(CC)C(=O)Cn1cc(-c2ccc(OC)cc2)c(=O)c2ccc(OC)cc21    108
3. COc1ccc(-c2cn(CCN(C)C)c3cc(OC)ccc3c2=O)cc1    97.6
4. COc1ccc(-c2cn(C)c3cc(OC)cc(N4CCN(C)CC4)c3c2=O)cc1    96.4
5. COc1ccc(-c2cn(CCC#N)c3cc(OC)ccc3c2=O)cc1    98.3
6. COc1ccc(-c2cn(CCCC#N)c3cc(OC)ccc3c2=O)cc1    92.8
7. CCOC(=O)CCn1cc(-c2ccc(OC)cc2)c(=O)c2ccc(OC)cc21    79.1
8. CCN(CC)c1cc(OC)cc2c1c(=O)c(-c1ccc(OC)cc1)cn2C    97.7

Hello, please tell me recorded viability at 10 µM for this one: `COc1ccc(-c2cn(C)c3cc(OC)cc(NCCN(C)C)c3c2=O)cc1`
89.4

Retrieve viability at 10 µM measured for `COc1ccc(-c2cn(C)c3cc(OC)ccc3c2=O)cc1` and print it.
99.8

Supply measured viability at 10 µM of `COc1ccc(-c2cn(C)c3cc(OC)cc(N)c3c2=O)cc1` in your reply.
68.2

Output viability at 10 µM of `CCOC(=O)Cn1cc(-c2ccc(OC)cc2)c(=O)c2ccc(OC)cc21`
94.3

###

This section presents molecules with their documented viability at 10 µM values.
Tested on: T-47D
protocol.details: MTT test, cytotoxic activity on non-clonogenic cell lines
Type: cell-based
settings: Homo sapiens, T47D; T-47D; 10^−5 M; 72 hours incubation; MTT; mean value; read-out: mean optical density, expressed as percentage relative to the mean optical density under the control condition (100%)
Reply numerically in %, unit not repeated.

Worked set:
1. COc1ccc(-c2cn(CCCC#N)c3cc(OC)ccc3c2=O)cc1    88.8
2. COc1ccc(-c2cn(C)c3cc(OC)cc(NCCN(C)C)c3c2=O)cc1    92.2
3. CC(=O)Oc1ccc(-c2cn(C)c3c(OC(C)=O)ccc(OC(C)=O)c3c2=O)cc1    56.2

Return value of viability at 10 µM for input `CCN(CC)c1cc(OC)cc2c1c(=O)c(-c1ccc(OC)cc1)cn2C` , no commentary.
92.1

Answer with the recorded viability at 10 µM for the molecule listed here: `COc1ccc(-c2cn(C)c3cc(OC)cc(N4CCN(C)CC4)c3c2=O)cc1`
89.4

Respond only with viability at 10 µM recorded for `COc1ccc(-c2cn(C)c3cc(OC)cc(N)c3c2=O)cc1`
51.9

Annotate the molecule `CCOC(=O)Cn1cc(-c2ccc(OC)cc2)c(=O)c2ccc(OC)cc21` with its measured viability at 10 µM.
94.4

###

Tested on: LoVo
protocol.details: MTT test, cytotoxic activity on non-clonogenic cell lines
Type: cell-based
settings: Homo sapiens, 10^−5 M, 72 hours incubation, MTT, mean value, read-out: mean optical density, expressed as percentage relative to the mean optical density under the control condition (100%)
readout.type: viability at 10 µM
Report the figure along with its unit, number first.

1) COc1ccc(-c2cn(C)c3cc(OC)ccc3c2=O)cc1 [CRL8464]    101%
2) COc1ccc(-c2cn(C)c3cc(OC)cc(N4CCN(C)CC4)c3c2=O)cc1 [CRL8436]    108%
3) COc1ccc(-c2cn(CCC#N)c3cc(OC)ccc3c2=O)cc1 [CRL8467]    95.8%
4) COc1ccc(-c2cn(C)c3cc(OC)cc(N)c3c2=O)cc1 [CRL8461]    92.7%

// switching to the query compound
Give a short answer stating reported viability at 10 µM for COc1ccc(-c2cn(CCN(C)C)c3cc(OC)ccc3c2=O)cc1 [CRL8469] .
95.9%

###

Tested on: A-427
protocol.details: MTT test, cytotoxic activity on non-clonogenic cell lines
Assay type: cell-based
settings: Homo sapiens, 10^−5 M, 72 hours of incubation, control condition = 100%, mean value, read-out: mean optical density as percentage of control, A-427
Mark each entry 1.0 if its viability at 10 µM sits below 70%, and 0.0 for all others.

Solved cases below.
1) COc1ccc(-c2c[nH]c3cc(OC)ccc3c2=O)cc1    1.0
2) COc1ccc(-c2cn(C)c3c(OC)ccc(OC)c3c2=O)cc1    1.0
3) COc1ccc(OC)c2c(=O)c(-c3ccccc3)c[nH]c12    1.0
4) CCc1cc(OC)cc2c1c(=O)c(-c1ccc(OC)cc1)cn2C    1.0

Identify whether the compound `CCN(CC)C(=O)Cn1cc(-c2ccc(OC)cc2)c(=O)c2c(OC)ccc(OC)c21` records viability at 10 µM below 70%.
0.0

Please let me know if `COc1ccc(-c2cn(C)c3cc(OC)cc(OC)c3c2=O)cc1` shows viability at 10 µM below 70%.
0.0

Consider the compound `CCOC(=O)Cn1cc(-c2ccc(OC)cc2)c(=O)c2c(OC)ccc(OC)c21` . Is its viability at 10 µM strictly less than 70%?
0.0

Lab log: compare recorded viability at 10 µM with 70%; is it strictly lower for `COc1cc2[nH]cc(-c3ccccc3)c(=O)c2cc1OC` ?
0.0

Identify whether the compound `COc1ccc(-c2cn(C)c3cc(OC)cc(-c4ccccc4)c3c2=O)cc1` records viability at 10 µM below 70%.
1.0

Lab note: viability at 10 µM threshold 70%. Does this compound come in strictly under it? `COc1cccc2c(=O)c(-c3ccccc3)c[nH]c12`
0.0

Is 70% strictly greater than the compound's reported viability at 10 µM? compound: `COc1ccc(-c2cn(C)c3cc(OC)cc(N4CCCCC4)c3c2=O)cc1`
0.0

Values from patent US6645983B1
